Reference source for all entries: ChEMBL document CHEMBL1134791

Assay system: Trypanothione reductase (Trypanosoma cruzi, UniProt P28593)
Sequence (P28593 whole entry): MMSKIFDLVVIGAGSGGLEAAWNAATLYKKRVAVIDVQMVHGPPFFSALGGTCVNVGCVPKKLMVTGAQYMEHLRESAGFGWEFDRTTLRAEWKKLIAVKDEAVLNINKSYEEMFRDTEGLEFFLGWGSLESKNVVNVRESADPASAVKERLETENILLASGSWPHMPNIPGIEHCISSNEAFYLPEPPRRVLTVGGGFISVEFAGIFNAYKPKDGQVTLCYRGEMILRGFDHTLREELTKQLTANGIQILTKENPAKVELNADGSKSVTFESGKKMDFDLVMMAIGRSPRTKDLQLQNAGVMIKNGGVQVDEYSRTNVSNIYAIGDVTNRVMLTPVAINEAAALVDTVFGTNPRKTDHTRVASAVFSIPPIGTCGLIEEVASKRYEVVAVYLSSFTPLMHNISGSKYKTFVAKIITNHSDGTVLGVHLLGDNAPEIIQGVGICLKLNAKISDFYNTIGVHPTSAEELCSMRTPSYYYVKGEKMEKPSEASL
Test: Inhibitory activity against Trypanosoma cruzi trypanothione disulfide reductase, assay in presence of 57 uM T(S)2.
pIC50: −log10 of the molar value.
Observed property: pIC50

Some solved cases for reference:
Query: Missing value: pIC50, Trypanothione reductase (Trypanosoma cruzi, UniProt P28593), entry CC1=C(CCCCC(=O)O)C(=O)c2ccccc2C1=O . Fill in?
Response: < 4.30

Query: Query CN(C)CCCN1CCN(CC2=C(N3CCN(CCCN(C)C)CC3)C(=O)c3ccccc3C2=O)CC1 next
Response: < 4.24

For the next question, use this molecule.
Query: Missing value: pIC50, Trypanothione reductase (Trypanosoma cruzi, UniProt P28593), entry CC1=C(CCCCC(=O)O)C(=O)c2c(O)cccc2C1=O . Fill in?
Response: < 4.30
